Biological target: HIV-1 protease (Q7S) (Human immunodeficiency virus type 1 group M subtype B, UniProt P04585, Q495S)
Construct: made in house
Test: HIV-1 Protease RET Assay
Type: biochemical
Conditions: Ave. Ki (nM), RET assay, Q7S enzyme, pH 4.8, 37 C
Catalogue of log10 Ki values
Heads up: the numbers are on a log10 scale; they represent Ki in nM.

Answered examples (5):
Cc1cc(O)c(C)c(C(=O)N[C@@H](Cc2ccccc2)[C@H](O)C(=O)N2CSC(C)(C)[C@H]2C(=O)NCc2ccccc2C)c1 ... -0.70
Cc1c(O)cccc1C(=O)N[C@@H](Cc1ccccc1)[C@H](O)C(=O)N1CSC(C)(C)[C@H]1C(=O)NCC#N ... 0.04
Cc1ccccc1CNC(=O)[C@H]1N(C(=O)[C@@H](O)[C@H](Cc2ccccc2)NC(=O)[C@@H]2CCCO2)CSC1(C)C ... 0.28
Cc1noc(C)c1C(=O)NC(Cc1ccccc1)C(O)C(=O)N1CSC(C)(C)C1C(=O)NCc1c(F)cccc1F (stereo not drawn) ... 0.43
Cc1ccc(F)cc1CNC(=O)[C@H]1N(C(=O)[C@@H](O)[C@H](Cc2ccccc2)NC(=O)c2cccc(O)c2C)COC1(C)C ... -0.47

Give log10 Ki for the following molecule: `Cc1ccccc1CNC(=O)[C@@H]1[C@H](C)OCN1C(=O)[C@@H](O)[C@H](Cc1ccccc1)NC(=O)c1cccc(O)c1C` -0.59
